ASSAYED_TARGET: FAAH (Mus musculus (Mouse))
Sequence (O08914 whole entry): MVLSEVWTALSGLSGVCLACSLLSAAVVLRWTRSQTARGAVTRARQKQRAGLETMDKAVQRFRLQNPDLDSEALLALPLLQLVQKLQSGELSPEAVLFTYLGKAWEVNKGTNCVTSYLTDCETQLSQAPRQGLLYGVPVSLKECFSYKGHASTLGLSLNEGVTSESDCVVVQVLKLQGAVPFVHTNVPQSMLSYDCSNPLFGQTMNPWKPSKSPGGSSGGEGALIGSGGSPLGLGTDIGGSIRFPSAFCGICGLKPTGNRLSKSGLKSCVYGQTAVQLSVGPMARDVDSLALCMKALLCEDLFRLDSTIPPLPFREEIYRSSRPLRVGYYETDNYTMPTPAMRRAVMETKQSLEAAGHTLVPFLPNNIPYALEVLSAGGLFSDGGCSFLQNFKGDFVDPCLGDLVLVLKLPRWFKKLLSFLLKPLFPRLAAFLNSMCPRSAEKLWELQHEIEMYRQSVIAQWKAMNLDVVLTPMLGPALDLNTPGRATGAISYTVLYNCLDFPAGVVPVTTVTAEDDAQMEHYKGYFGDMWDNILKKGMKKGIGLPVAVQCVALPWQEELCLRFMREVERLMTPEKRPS
ASSAY_METRIC: IC50

Known IC50 results, listed for orientation:
>>> print(df.to_string())
                                   compound  assay_metric    value_observed
0  CC(=O)N(C)c1cnn(C(=O)N2CCN(Cc3cccc(C)c3)CC2)c1          IC50    100 to 1000 nM
1  CC(=O)N(C)c1cnn(C(=O)N2CCN(Cc3cccc(Oc4ccccc4)c3)CC2)c1          IC50          ≤ 100 nM
2  CC(=O)Nc1cnn(C(=O)N2CCN(Cc3ccc(C(F)(F)F)cc3N3C4CCC3COC4)CC2)c1          IC50  1000 to 10000 nM
3  CC(=O)N(C)c1cnn(C(=O)N2CC3CN(Cc4cc(Cl)cc(N5CC6COCC6C5)c4)CC3C2)c1 (centres unmarked)          IC50          ≤ 100 nM
4  CC(=O)N(C)c1cnn(C(=O)N2CCC3(CCN(Cc4cccc(C(F)(F)F)c4)C3)C2)c1 (single isomer, unassigned) [Example 66]          IC50          ≤ 100 nM
5  CC(=O)N(C)c1cnn(C(=O)N2CC3CN(Cc4cc(Cl)ccc4Cl)CC3C2)c1 (centres unmarked)          IC50          ≤ 100 nM
6  COc1cc(-c2ccccc2)ccc1CN1CCN(C(=O)n2cc(NS(C)(=O)=O)cn2)CC1          IC50          ≤ 100 nM

Here is the next item to consider.
Data request, read-out IC50, for CS(=O)(=O)Nc1cnn(C(=O)N2CC3CN(Cc4ccc(Cl)cc4)CC3C2)c1 (centres unmarked) 100 to 1000 nM

* * *

ASSAYED_TARGET: MAGL (Mus musculus (Mouse))
Sequence (O35678 whole entry): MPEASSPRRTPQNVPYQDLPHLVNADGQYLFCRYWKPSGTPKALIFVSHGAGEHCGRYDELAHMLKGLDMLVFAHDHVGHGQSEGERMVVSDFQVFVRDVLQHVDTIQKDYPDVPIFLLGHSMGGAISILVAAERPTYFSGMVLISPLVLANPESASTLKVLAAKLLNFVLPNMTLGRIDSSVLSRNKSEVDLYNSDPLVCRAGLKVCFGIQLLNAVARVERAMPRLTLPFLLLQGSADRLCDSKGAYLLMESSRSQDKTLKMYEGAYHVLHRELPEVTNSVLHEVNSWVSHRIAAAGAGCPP
RUN_DESCRIPTION: In vitro competitive activity-based protein profiling, MAGL (mouse)
Assay type: biochemical
CONDITION: 1 μM, read-out: MAGL % inh. 1 μM (mouse)
ASSAY_METRIC: inhibition at 1 µM

Known inhibition at 1 µM results, listed for orientation:
                                   molecule  value_observed
0  CS(=O)(=O)Nc1cnn(C(=O)N2CCC3(CC2)CN(Cc2ccc(N4CCCC4)cc2C(F)(F)F)C3)c1           ≥ 75%
1  CN(Cc1ccccc1C(F)(F)F)[C@H]1C[C@@H]2CN(C(=O)n3cc(NS(C)(=O)=O)cn3)C[C@@H]2C1           ≥ 75%
2  CC(=O)N(C)c1cnn(C(=O)N2CC3CN(Cc4cccc(Cl)c4)CC3C2)c1 (stereo not drawn)           ≥ 75%
3  CS(=O)(=O)Nc1cnn(C(=O)N2CCN(Cc3cc(N4CCCC4)cc(C(F)(F)F)c3)CC2)c1           ≥ 75%
4  CC(=O)N(C)c1cnn(C(=O)N2CC3(CCN(Cc4ccc(N5CCCC5)cc4)CC3)C2)c1       50 to 75%
5  CC(=O)N(C)c1cnn(C(=O)N2C[C@H]3C[C@@H](N(C)Cc4cc(C(F)(F)F)ccc4Cl)C[C@H]3C2)c1           ≥ 75%

Data request, read-out inhibition at 1 µM, for CC(=O)N(C)c1cnn(C(=O)N2CCN(Cc3cccc(Cl)c3)CC2)c1 ≥ 75%

Another molecule: CS(=O)(=O)Nc1cnn(C(=O)N2CC3CN(Cc4cccc(Cl)c4)CC3C2)c1 (stereo not drawn) 0 to 25%

Another molecule: CN(Cc1cc(Cl)ccc1C(F)(F)F)[C@H]1C[C@@H]2CN(C(=O)n3cc(NS(C)(=O)=O)cn3)C[C@@H]2C1 ≥ 75%
